// provenance: PubChem BioAssay (NCI)

Catalogue of compounds with associated TGI
Test system: HCT-116 colon
Experiment: NCI tumour cell line growth inhibition, 48 h

# compound, TGI
records = [
    ("Cc1ccc(NCCNCC(C)(C)O)c2c(=O)c3ccc(Cl)cc3sc12", "2.66 µM"),
    ("COC(=O)Cc1cc(=O)n2c3ccccc3n(C)c2c1C#N", "> 100 µM"),
    ("NC(Cc1ccccc1)C(=O)OCN1C(=O)C2C3C=CC(C2C1=O)C1C(=O)N(COC(=O)C(N)Cc2ccccc2)C(=O)C31 (stereo not given)", "> 100 µM"),
    ("O/N=C\\c1c2c(cc3c1CCC3)CCC2", "> 100 µM"),
    ("CCN(CC)CCOC(COc1cc(C)cc(C)c1)COc1cc(C)cc(C)c1", "14.9 µM"),
    ("CC(C)=CCC[C@@H](C)C1=C(O)C(N[C@H](C)c2ccccc2)=C(C)C(=O)C1=O", "20.4 µM"),
    ("Cc1cc(NCCCCCCCNc2cc(C)nc3cc(N)ccc23)c2ccc(N)cc2n1", "> 100 µM"),
    ("Cc1ccc(S(=O)(=O)N/N=C2\\C=CC3(CC2)C(=O)N(I)c2ccccc23)cc1 (stereo not given)", "> 100 µM"),
    ("O=C(/C=C/c1ccccc1)c1ccc(Cl)cc1Cl", "24 µM"),
    ("Cn1cc(-c2cc(-c3cn(C)c4ccccc34)[nH]n2)c2ccccc21", "> 100 µM"),
    ("CN1NC(c2ccc(Cl)cc2)=C(C#N)C(=O)CC1c1ccccc1 (stereo not given)", "> 100 µM"),
    ("O=P(CN1CCOCC1)(c1ccccc1)c1ccccc1", "> 100 µM"),
    ("O=C(C[N+]12CN3CN(CN(C3)C1)C2)c1ccc(-c2ccccc2)cc1", "35.7 µM"),
    ("Clc1cc(N/N=C(\\c2ccccc2)c2ccccn2)ncn1", "> 100 µM"),
    ("CC1NOC(=O)C1N=Nc1cccc(Cl)c1 (stereo not given)", "> 100 µM"),
    ("NC(=NCCCCCCN=C(N)/N=C(\\N)Nc1ccc(Cl)cc1)/N=C(\\N)Nc1ccc(Cl)cc1", "6.12 µM"),
    ("NC1=Nc2cc(C(F)(F)F)ccc2Sc2nc3ccccc3n21", "> 100 µM"),
    ("CCOc1ccc(C2=NN(CC)C(=O)C(C3C(=O)N(c4ccccc4)N=C3C)C2)cc1 (stereo not given)", "> 100 µM"),
    ("COc1ccc(OC)c2c(C(C)=O)cccc12", "> 100 µM"),
    ("C[N+](C)(C)CC1CCC(C[N+](C)(C)C)C1=NO (stereo not given)", "> 100 µM"),
    ("CSc1c(C(C)=O)c(O)n(-c2ccc(C)cc2)c(=O)c1C#N", "> 100 µM"),
    ("C[N+]1(C)CCCC(C#N)(c2ccccc2)CC1 (stereo not given)", "> 100 µM"),
    ("OC12CCC3(OC4CCCCO4)c4ccccc4C3C1c1ccccc12 (stereo not given)", "> 100 µM"),
    ("CC1OC(OC2C(O)CC(OC3C(O)CC(OC4CCC5(C)C(CCC6C5CCC5(C)C(C7=CC(=O)OC7)C(O)CC65O)C4)OC3C)OC2C)CC(O)C1O (stereo not given)", "0.576 µM"),
    ("Nc1nc(N)c2nc(CN(C=O)c3ccc(C(=O)O)cc3)cnc2n1", "> 100 µM"),
    ("Cc1cc(N2CCC(N3CCCC3)CC2)nc(/N=C(\\N)Nc2ccc(Cl)c(Cl)c2)n1", "3.63 µM"),
    ("COc1ccc(-c2nc3ccccc3c(=O)[nH]2)cc1", "> 100 µM"),
    ("C[N+](C)(CCNc1ccc(NCC[N+](C)(C)Cc2ccc([N+](=O)[O-])cc2)c2c1C(=O)c1c(O)ccc(O)c1C2=O)Cc1ccc([N+](=O)[O-])cc1", "> 50 µM"),
    ("CCCCCCCCCCCCCCCCCc1nc(Cl)nc(Cl)c1Cl", "> 100 µM"),
    ("CC1(C)CC(O)CC(C)(C)N1O", "> 100 µM"),
]
